// reported IC50 for each item listed
targetDesc: UniProt A0A024AXB9
Sequence (A0A024AXB9 whole entry): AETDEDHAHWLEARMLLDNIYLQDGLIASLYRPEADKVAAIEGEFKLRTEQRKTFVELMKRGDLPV
assayText: Functional biochemical assay to identify treatments for viral infectious disease that targets Zika NS2B-NS3 protease. Utilizing a direct enzyme activity measurement method, reading the fluorescence intensity is used to characterize the relative potency of inhibitors as IC50.
Design: species or system PRVABC59
measuredEndpoint: IC50

{"smiles": "Cc1nc(C2CC2)[nH]c1C(=O)Nc1cc(CCCN)ccn1", "measuredEndpoint": "IC50", "endpointResult": "> 25 µM"}
{"smiles": "NCc1cccc(NC(=O)c2cc(Cl)cc(CN)c2)c1", "measuredEndpoint": "IC50", "endpointResult": "< 2.49 µM"}
{"smiles": "CNC(=O)c1cc(Cl)ccc1NS(=O)(=O)c1cccc(Oc2ccccc2)c1", "measuredEndpoint": "IC50", "endpointResult": "> 99.5 µM"}
{"smiles": "CC(C)Oc1cncc(N2CC[C@@H](CO)C2)c1", "measuredEndpoint": "IC50", "endpointResult": "> 99.5 µM"}
{"smiles": "O=C1Cc2c(cccc2C(=O)N[C@H]2CC[C@H](OC3CCCC3)CC2)N1", "measuredEndpoint": "IC50", "endpointResult": "> 25 µM"}
{"smiles": "CC(C)c1ncc(OC2CCC2)c(C(=O)Nc2cccc(CN)c2)n1", "measuredEndpoint": "IC50", "endpointResult": "> 99.5 µM"}
{"smiles": "NCc1cc(NS(=O)(=O)c2ccc(Oc3ccccc3Cl)cc2)ccc1Cl", "measuredEndpoint": "IC50", "endpointResult": "> 99.5 µM"}
{"smiles": "C[C@@H](N)c1cccc(NC(=O)c2cc(Cl)cc(NC(=O)OCc3ccccc3)c2)c1", "measuredEndpoint": "IC50", "endpointResult": "22.7 µM"}
{"smiles": "N#Cc1ccc2[nH]cc(Cc3ccc(-c4nnn[nH]4)cc3)c2c1", "measuredEndpoint": "IC50", "endpointResult": "> 99.5 µM"}
{"smiles": "O=C1Cc2c(cccc2C(=O)Nc2ccc(Cl)c(CO)n2)N1", "measuredEndpoint": "IC50", "endpointResult": "> 25 µM"}
{"smiles": "N#Cc1cc(C(=O)Nc2ccc3c(c2)CNC3)cc(C(F)(F)F)c1", "measuredEndpoint": "IC50", "endpointResult": "0.533 µM"}
{"smiles": "O=C(N[C@@H](C(=O)Nc1ccc2c(n1)CNC2)c1ccc(OCc2ccccc2)cc1)OCc1ccccc1", "measuredEndpoint": "IC50", "endpointResult": "> 99.5 µM"}
{"smiles": "CCc1ccccc1COc1ccc(S(=O)(=O)Nc2ccc(Cl)cc2C(=O)O)cc1", "measuredEndpoint": "IC50", "endpointResult": "12.6 µM"}
{"smiles": "c1ccc2c(CN[C@H]3CCc4c([nH]c5ccccc45)C3)n[nH]c2c1", "measuredEndpoint": "IC50", "endpointResult": "> 99.5 µM"}
